Biological target: T1, recombinant soluble human type 1 IL-1 receptor (extracellular domain, glycosylated) (human, UniProt P14778 21-333, N-glycosylated (from SF9 insect cells); biotinylated in the ELISA of Examples 2 and 4c)
T1 construct: also called hIL-1R; rshIL-1R
T1 sequence: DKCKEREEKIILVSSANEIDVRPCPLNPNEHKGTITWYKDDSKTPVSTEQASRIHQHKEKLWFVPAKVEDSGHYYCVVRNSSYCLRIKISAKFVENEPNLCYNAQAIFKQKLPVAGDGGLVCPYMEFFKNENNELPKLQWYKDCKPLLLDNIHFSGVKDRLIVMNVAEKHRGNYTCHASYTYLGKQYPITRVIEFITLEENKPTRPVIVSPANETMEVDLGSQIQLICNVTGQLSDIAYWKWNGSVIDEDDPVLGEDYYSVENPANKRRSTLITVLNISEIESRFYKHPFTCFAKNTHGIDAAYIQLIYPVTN
Assay: ELISA on biotinylated human IL-1R on streptavidin plates
MEASUREMENT_LABEL: ELISA (absorbance at 370 nm in relation to 2D8), 1st experiment

BINDER	RESULT
DEI2/8 (antibody, V domains shown, also called combination of HURDIVHv2 and HURDIVKv8) VH: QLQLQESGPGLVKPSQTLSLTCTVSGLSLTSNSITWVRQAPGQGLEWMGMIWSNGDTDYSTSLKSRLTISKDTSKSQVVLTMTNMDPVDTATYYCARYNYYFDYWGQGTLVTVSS VL: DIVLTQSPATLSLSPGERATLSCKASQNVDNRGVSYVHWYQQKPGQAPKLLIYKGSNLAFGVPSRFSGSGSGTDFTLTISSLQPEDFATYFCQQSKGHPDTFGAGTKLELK	1.5 relative to 2D8
DEI5/5 (antibody, V domains shown, also called combination of HURDIVHv5 and HURDIVKv5) VH: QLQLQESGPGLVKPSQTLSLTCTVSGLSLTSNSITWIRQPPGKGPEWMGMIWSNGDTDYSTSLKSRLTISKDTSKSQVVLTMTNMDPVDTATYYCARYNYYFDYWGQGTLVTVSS VL: DIVLTQSPATLSLSPGERATISCKASQNVDNRGVSYVHWYQQKPGQAPKLLIYKGSNLAFGVPARFSGSGSGTDFTLTISSLQPEDFATYYCQQSKGHPDTFGAGTKLELK	3.1 relative to 2D8
HUM2/3 (antibody, V domains shown, also called combination of HUR HuVH v2 and HUR HuVK v3) VH: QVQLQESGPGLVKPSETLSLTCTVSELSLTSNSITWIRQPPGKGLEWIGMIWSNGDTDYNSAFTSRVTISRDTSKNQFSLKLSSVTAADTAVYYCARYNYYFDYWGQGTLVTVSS VL: EIVLTQSPATLSLSPGERATISCKASQNVDNRGVSYVHWYQQKPGQQPKLLIYKGSNLAFGVPARFSGSGSRTDFTLTISSLEPEDFATYYCQQSKGHPDTFGQGTKVEIK	2.2 relative to 2D8
DEI2/9 (antibody, V domains shown, also called combination of HURDIVHv2 and HURDIVKv9) VH: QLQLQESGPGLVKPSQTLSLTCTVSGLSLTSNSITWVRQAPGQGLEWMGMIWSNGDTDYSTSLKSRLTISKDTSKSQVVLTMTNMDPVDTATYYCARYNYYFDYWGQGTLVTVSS VL: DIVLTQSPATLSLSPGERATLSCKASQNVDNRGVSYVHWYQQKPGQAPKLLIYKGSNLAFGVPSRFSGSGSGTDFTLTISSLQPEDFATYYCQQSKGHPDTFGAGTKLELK	1.4 relative to 2D8
DEI2/4 (antibody, V domains shown, also called combination of HURDIVHv2 and HURDIVKv4) VH: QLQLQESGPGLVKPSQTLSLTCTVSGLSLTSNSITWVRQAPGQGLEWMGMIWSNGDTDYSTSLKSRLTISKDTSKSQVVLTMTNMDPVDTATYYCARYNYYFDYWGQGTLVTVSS VL: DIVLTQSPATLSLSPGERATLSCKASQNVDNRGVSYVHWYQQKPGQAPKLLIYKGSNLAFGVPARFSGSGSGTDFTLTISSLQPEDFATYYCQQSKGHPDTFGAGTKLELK	1.5 relative to 2D8

Where do the numbers come from? From patent US20090191187A1.
